The origin of these recorded values is patent US12649778.

study.target: Peptide 1593 (…) (Mycobacterium tuberculosis)
assay.protocol: ELISA, NNK clone supernatant on coated peptide (22 hits)
quantity.measured: ratio (OD450 to WT OD450)

Enquiry: Output ratio (OD450 to WT OD450) of 65D3 chimeric Fab, NNK library L3 mutant S to L (VL S25L) (Fab, V domains shown) VH: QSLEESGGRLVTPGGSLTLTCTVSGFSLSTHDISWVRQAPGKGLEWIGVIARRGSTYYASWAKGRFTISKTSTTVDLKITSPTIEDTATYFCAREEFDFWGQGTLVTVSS VL: AVLTQTASPVSAAVGGTVTISCQSLQSVYNNKELSWFQQKPGQPPKLLISYASTLASGVPSRFKGSGSGTQFTLTISDLECDDAATYYCLGGYASTIDMWAFGGGTEVVVK
Return: 1.18 fold of WT

Enquiry: Please give the documented ratio (OD450 to WT OD450) of 65D3 chimeric Fab, NNK library L8 mutant N to H (VL N30H) (Fab, V domains shown) VH: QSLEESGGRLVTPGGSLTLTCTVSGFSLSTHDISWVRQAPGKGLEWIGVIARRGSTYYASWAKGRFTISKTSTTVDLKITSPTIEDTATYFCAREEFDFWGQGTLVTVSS VL: AVLTQTASPVSAAVGGTVTISCQSSQSVYHNKELSWFQQKPGQPPKLLISYASTLASGVPSRFKGSGSGTQFTLTISDLECDDAATYYCLGGYASTIDMWAFGGGTEVVVK
Return: 1.26 fold of WT

Enquiry: Annotate the binder 65D3 chimeric Fab, NNK library L5 mutant S to V (VL S27V) (Fab, V domains shown) VH: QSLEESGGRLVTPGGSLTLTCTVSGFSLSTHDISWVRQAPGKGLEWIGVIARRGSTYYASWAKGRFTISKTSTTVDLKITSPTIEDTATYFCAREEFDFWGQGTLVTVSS VL: AVLTQTASPVSAAVGGTVTISCQSSQVVYNNKELSWFQQKPGQPPKLLISYASTLASGVPSRFKGSGSGTQFTLTISDLECDDAATYYCLGGYASTIDMWAFGGGTEVVVK with its measured ratio (OD450 to WT OD450).
Return: 1.41 fold of WT

Enquiry: Answer with reported ratio (OD450 to WT OD450) of 65D3 chimeric Fab, NNK library L3 mutant S to R (VL S25R) (Fab, V domains shown) VH: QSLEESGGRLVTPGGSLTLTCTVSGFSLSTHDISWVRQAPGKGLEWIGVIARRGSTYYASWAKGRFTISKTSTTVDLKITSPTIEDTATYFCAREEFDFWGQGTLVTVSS VL: AVLTQTASPVSAAVGGTVTISCQSRQSVYNNKELSWFQQKPGQPPKLLISYASTLASGVPSRFKGSGSGTQFTLTISDLECDDAATYYCLGGYASTIDMWAFGGGTEVVVK
Return: 1.19 fold of WT
